A collection of compounds and their measured %Inh
Tested on: PRKD3
MEASUREMENT CONDITIONS: concentration: 1 μM, replicates: in singlicate; n = 1;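 note: KINOMEscan kinase panel screen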
READOUT TYPE: %Inh (%)

- COMPOUND: "Cc1ccc(C(=O)Nc2ccc(Nc3ccnc4cc(-c5ccccn5)ccc34)cc2O)cc1.Cl [GW440146]"
  EXPERIMENTAL RESULT: 18
- COMPOUND: "Cc1ccccc1-n1cnc2c(N)ncnc21 [SKF-97510]"
  EXPERIMENTAL RESULT: 4
- COMPOUND: "Cc1ccc(-c2cc(-c3c[nH]nc3-c3ccccn3)ccn2)cc1 [GW684088]"
  EXPERIMENTAL RESULT: 69
- COMPOUND: "Cc1c(O)cccc1Nc1ccnc2ccc(C(F)(F)F)cc12.Cl [GW466413]"
  EXPERIMENTAL RESULT: 0
- COMPOUND: "O=C1NC(=O)C(N2CCc3ccccc32)=C1c1ccccc1Cl [SB-373598]"
  EXPERIMENTAL RESULT: 0
- COMPOUND: "Cc1cccc(-c2nc(Nc3ccncc3)c3ccccc3n2)n1 [GW855857]"
  EXPERIMENTAL RESULT: 69
- COMPOUND: "COc1ccc(CNC(=O)NC2CCN(c3ccnc(Nc4cc(OC)c(OC)c(OC)c4)n3)C2)cc1 (centres unmarked) [GSK1379748]"
  EXPERIMENTAL RESULT: 0
- COMPOUND: "COC(=O)c1c(-c2ccccc2)c2cc(OC)ccc2c(=O)n1Cc1ccccc1"
  EXPERIMENTAL RESULT: 0

###

System: WNK2
MEASUREMENT CONDITIONS: concentration: 1 μM, replicates: in singlicate; n = 1
A collection of compounds and their measured %Inh

- COMPOUND: "Cn1ccc2ncnc(Oc3cccc(C(=O)Nc4ccccc4)c3)c21"
  STUDY SYSTEM: "WNK2"
  ENDPOINT UNIT: "%"
  %Inh: 0
- COMPOUND: "COC(=O)c1c(-c2ccccc2)c2cc(C(=O)O)ccc2c(=O)n1Cc1ccccc1"
  STUDY SYSTEM: "WNK2"
  ENDPOINT UNIT: "%"
  %Inh: 0
- COMPOUND: "Cc1ccccc1-n1cnc2c(N)ncnc21"
  STUDY SYSTEM: "WNK2"
  ENDPOINT UNIT: "%"
  %Inh: 0
- COMPOUND: "COc1cccc(-c2cc(-c3c[nH]nc3-c3ccccn3)ccn2)c1"
  STUDY SYSTEM: "WNK2"
  ENDPOINT UNIT: "%"
  %Inh: 17
- COMPOUND: "Fc1cc(Cl)ccc1Nc1ccnc2cc(-c3ccc(CN4CCCCC4)o3)ccc12"
  STUDY SYSTEM: "WNK2"
  ENDPOINT UNIT: "%"
  %Inh: 0
- COMPOUND: "COc1ccc(CNC(=O)NC2CCN(c3ccnc(Nc4cc(OC)c(OC)c(OC)c4)n3)C2)cc1 (centres unmarked)"
  STUDY SYSTEM: "WNK2"
  ENDPOINT UNIT: "%"
  %Inh: 30
- COMPOUND: "COc1ccc2nc(-c3cccc(C)n3)nc(Nc3ccncc3)c2c1"
  STUDY SYSTEM: "WNK2"
  ENDPOINT UNIT: "%"
  %Inh: 3
- COMPOUND: "COc1cc2nccc(Nc3ccc(NC(=O)c4ccc(C)cc4)c(O)c3)c2cc1OC.Cl"
  STUDY SYSTEM: "WNK2"
  ENDPOINT UNIT: "%"
  %Inh: 14
- COMPOUND: "Cn1cncc1-c1ccc2ncnc(Nc3ccc(OCc4ccccc4)cc3)c2c1"
  STUDY SYSTEM: "WNK2"
  ENDPOINT UNIT: "%"
  %Inh: 15
- COMPOUND: "COc1cc2ncnc(Nc3ccc4nc(-c5ccccc5)[nH]c4c3)c2cc1OC.Cl"
  STUDY SYSTEM: "WNK2"
  ENDPOINT UNIT: "%"
  %Inh: 16
- COMPOUND: "NC(=O)c1nnc2ccccc2c1N"
  STUDY SYSTEM: "WNK2"
  ENDPOINT UNIT: "%"
  %Inh: 0
- COMPOUND: "Nc1nc(-c2nccs2)c(-c2ccnc3ccccc23)s1"
  STUDY SYSTEM: "WNK2"
  ENDPOINT UNIT: "%"
  %Inh: 28
- COMPOUND: "Cc1cc(N2Cc3ccccc3C2)nc(Nc2ccc(S(=O)(=O)N3CCOCC3)cc2)n1.Cl"
  STUDY SYSTEM: "WNK2"
  ENDPOINT UNIT: "%"
  %Inh: 7
- COMPOUND: "O=C(Nc1n[nH]c2cc(-c3cccc(F)c3F)ccc12)C1CC1"
  STUDY SYSTEM: "WNK2"
  ENDPOINT UNIT: "%"
  %Inh: 0
- COMPOUND: "Cc1cccc(-c2cc(Nc3ccncc3)c3ccccc3n2)n1"
  STUDY SYSTEM: "WNK2"
  ENDPOINT UNIT: "%"
  %Inh: 0
- COMPOUND: "CC(C)(C)c1ccc(C(=O)Nc2cn3cc(Cl)ccc3n2)cc1"
  STUDY SYSTEM: "WNK2"
  ENDPOINT UNIT: "%"
  %Inh: 0
- COMPOUND: "Cc1nnc(-c2ccc3occ(-c4ccc(S(C)=O)cc4)c3c2)[nH]1 (centres unmarked)"
  STUDY SYSTEM: "WNK2"
  ENDPOINT UNIT: "%"
  %Inh: 19
- COMPOUND: "O=C(Nc1ccccc1)Nc1cccc(Oc2ccc3nccn3n2)c1"
  STUDY SYSTEM: "WNK2"
  ENDPOINT UNIT: "%"
  %Inh: 0
- COMPOUND: "Nc1ncnc2[nH]c(-c3ccccc3)nc12"
  STUDY SYSTEM: "WNK2"
  ENDPOINT UNIT: "%"
  %Inh: 9
- COMPOUND: "Cl.NC(=O)c1cccc(Nc2nccc(Nc3ccc(Oc4cccc(Cl)c4)c(Cl)c3)n2)c1"
  STUDY SYSTEM: "WNK2"
  ENDPOINT UNIT: "%"
  %Inh: 0
- COMPOUND: "Cc1c(O)cccc1Nc1ccnc2ccc(C(F)(F)F)cc12.Cl"
  STUDY SYSTEM: "WNK2"
  ENDPOINT UNIT: "%"
  %Inh: 17
- COMPOUND: "COc1ccc(Nc2nccc(-c3cccc(NC(=O)c4cc5cc(F)ccc5[nH]4)c3)n2)cc1"
  STUDY SYSTEM: "WNK2"
  ENDPOINT UNIT: "%"
  %Inh: 12
- COMPOUND: "COc1ccc(C2=C(Nc3cccc(C(=O)O)c3)C(=O)NC2=O)cc1"
  STUDY SYSTEM: "WNK2"
  ENDPOINT UNIT: "%"
  %Inh: 15
- COMPOUND: "Fc1cc(Cl)ccc1Nc1ccnc2cc(I)ccc12"
  STUDY SYSTEM: "WNK2"
  ENDPOINT UNIT: "%"
  %Inh: 11
- COMPOUND: "CC1=C(C(=O)Nc2cc3cn[nH]c3cc2F)C(c2ccc(C(F)(F)F)cc2)CC(=O)N1 (centres unmarked)"
  STUDY SYSTEM: "WNK2"
  ENDPOINT UNIT: "%"
  %Inh: 61
- COMPOUND: "COc1cccc(NC(=O)NC2CCN(c3ccnc(Nc4ccc(F)cc4)n3)C2)c1 (centres unmarked)"
  STUDY SYSTEM: "WNK2"
  ENDPOINT UNIT: "%"
  %Inh: 8
